The origin of these recorded values is patent US8841309B2.

Measured pIC50 accompanies every entry in the list below.
# Tgt: ENaC (Mus musculus, UniProt Q61180+Q9WU38+Q9WU39)
# Construct: Mouse kidney M-1 cells were cultivated in DMEM containing 5% FCS and 5 μM dexamethasone; endogenous in cells
# Sequence (Q61180 1-699): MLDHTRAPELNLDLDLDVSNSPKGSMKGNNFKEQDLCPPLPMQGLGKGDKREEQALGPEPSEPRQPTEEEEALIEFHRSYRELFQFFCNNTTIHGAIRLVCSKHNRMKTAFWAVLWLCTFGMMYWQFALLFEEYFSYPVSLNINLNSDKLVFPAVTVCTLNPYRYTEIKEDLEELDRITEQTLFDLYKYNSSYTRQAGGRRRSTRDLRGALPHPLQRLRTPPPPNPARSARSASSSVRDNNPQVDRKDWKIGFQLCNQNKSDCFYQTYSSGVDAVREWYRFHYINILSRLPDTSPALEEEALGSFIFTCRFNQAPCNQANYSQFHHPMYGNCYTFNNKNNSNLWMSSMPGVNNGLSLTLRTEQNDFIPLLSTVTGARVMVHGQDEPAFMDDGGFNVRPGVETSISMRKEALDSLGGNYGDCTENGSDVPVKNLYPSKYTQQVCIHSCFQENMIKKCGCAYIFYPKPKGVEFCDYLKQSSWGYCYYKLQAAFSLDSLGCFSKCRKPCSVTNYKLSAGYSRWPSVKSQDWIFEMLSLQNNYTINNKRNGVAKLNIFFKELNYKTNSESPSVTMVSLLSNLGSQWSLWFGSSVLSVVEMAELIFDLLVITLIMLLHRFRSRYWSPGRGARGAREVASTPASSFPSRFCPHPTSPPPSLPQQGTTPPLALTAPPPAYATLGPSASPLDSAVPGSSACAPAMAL
# Sequence (Q9WU38 1-638): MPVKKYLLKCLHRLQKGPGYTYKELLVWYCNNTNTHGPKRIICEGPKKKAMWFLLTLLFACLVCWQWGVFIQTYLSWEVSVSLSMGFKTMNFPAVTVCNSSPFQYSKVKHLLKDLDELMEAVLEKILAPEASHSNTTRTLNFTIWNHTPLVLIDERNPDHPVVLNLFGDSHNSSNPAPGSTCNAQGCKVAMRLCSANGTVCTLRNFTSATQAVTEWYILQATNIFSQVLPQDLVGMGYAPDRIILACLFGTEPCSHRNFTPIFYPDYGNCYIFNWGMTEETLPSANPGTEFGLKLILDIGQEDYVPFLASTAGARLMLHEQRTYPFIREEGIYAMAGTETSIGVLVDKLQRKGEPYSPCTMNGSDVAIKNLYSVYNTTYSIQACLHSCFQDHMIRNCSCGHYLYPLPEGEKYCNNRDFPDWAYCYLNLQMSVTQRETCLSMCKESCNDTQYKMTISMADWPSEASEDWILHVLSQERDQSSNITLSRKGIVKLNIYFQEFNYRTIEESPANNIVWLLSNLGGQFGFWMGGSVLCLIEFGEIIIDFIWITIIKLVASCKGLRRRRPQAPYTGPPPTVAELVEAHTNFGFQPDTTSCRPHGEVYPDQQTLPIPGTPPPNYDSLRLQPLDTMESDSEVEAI
# Sequence (Q9WU39 1-655): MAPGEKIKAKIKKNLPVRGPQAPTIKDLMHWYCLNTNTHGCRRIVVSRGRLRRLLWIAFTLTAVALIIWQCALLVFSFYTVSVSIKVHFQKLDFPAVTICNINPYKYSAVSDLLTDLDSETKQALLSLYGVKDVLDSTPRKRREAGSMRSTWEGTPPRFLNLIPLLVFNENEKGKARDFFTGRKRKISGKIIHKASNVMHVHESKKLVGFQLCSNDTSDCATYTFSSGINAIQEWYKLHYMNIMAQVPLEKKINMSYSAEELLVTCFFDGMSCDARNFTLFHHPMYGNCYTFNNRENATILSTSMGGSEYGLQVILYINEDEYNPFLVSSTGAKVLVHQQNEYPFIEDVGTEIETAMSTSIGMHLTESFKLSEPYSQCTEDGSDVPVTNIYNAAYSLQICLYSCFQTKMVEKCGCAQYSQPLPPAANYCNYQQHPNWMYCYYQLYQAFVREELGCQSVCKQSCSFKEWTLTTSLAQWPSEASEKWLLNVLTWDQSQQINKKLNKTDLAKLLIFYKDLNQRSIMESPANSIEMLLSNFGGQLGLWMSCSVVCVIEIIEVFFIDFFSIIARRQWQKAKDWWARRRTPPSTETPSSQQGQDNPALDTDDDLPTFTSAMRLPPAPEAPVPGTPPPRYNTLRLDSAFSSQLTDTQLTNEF
# Experiment summary: Ussing chamber: short circuit current (I_sc) in mouse kidney M-1 cells, amiloride-sensitive
# Particulars: compound applied to apical solution, 37° C.
Please keep in mind that pIC50 is minus log10 of the molar concentration; only the number is needed.

Check out these entries, answers already filled in.
NC(=NC(=O)c1nc(Cl)c(N)nc1N)N[C@@H]1C[N+]2(Cc3cccc(Cl)c3)CCC1CC2: 7.92
NC(=NC(=O)c1nc(Cl)c(N)nc1N)N[C@@H]1C[N+]2(Cc3ccc(F)c(F)c3)CCC1CC2: 7.64
N/C(=N\C(=O)c1nc(Cl)c(N)nc1N)N[C@@H]1C[N+]2(Cc3ccccn3)CCC1CC2: 7.05
CC(C)(C)c1ccc(C[N+]23CCC(CC2)[C@H](N/C(N)=N/C(=O)c2nc(Cl)c(N)nc2N)C3)cc1: 7.39
NC(=NC(=O)c1nc(Cl)c(N)nc1N)N[C@@H]1C[N+]2(CC3CCCCC3)CCC1CC2: 7.15

Exam item: Notebook: pull reported pIC50 for ENaC (Mus musculus, UniProt Q61180+Q9WU38+Q9WU39), entry C[N+]1(Cc2ccccc2)CCC[C@H](N/C(N)=N/C(=O)c2nc(Cl)c(N)nc2N)C1 (stereo in doubt)
Marked response: 7.09

Exam item: Item: CS(=O)(=O)c1ccc(C[N+]23CCC(CC2)[C@H](NC(N)=NC(=O)c2nc(Cl)c(N)nc2N)C3)cc1 Test system: ENaC (Mus musculus, UniProt Q61180+Q9WU38+Q9WU39) Read-out: pIC50 Value: ?
Marked response: 6.75
